Target: D(1A) dopamine receptor (Homo sapiens, UniProt P21728)
Sequence (P21728 whole entry): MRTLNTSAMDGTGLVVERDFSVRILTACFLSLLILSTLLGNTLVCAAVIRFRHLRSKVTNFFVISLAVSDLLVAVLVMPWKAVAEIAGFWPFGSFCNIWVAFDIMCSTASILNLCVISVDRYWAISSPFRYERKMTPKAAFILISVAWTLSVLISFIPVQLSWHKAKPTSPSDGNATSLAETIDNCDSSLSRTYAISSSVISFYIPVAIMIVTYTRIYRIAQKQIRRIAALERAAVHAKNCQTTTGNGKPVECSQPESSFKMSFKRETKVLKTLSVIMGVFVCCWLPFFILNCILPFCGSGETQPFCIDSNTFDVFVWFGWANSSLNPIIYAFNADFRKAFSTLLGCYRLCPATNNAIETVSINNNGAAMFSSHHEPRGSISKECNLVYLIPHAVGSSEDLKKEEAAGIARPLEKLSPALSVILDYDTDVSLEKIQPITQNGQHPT
Assay: Potentiation of dopamine-induced positive allosteric modulation of human D1 receptor expressed in HEK293 cells assessed as cAMP production measured after 60 to 90 mins by HTRF assay relative to control
Type: functional, cell-based
Design: concentration or dose not given beside the values
Please provide measured Activity for the entries that follow.
Please respond with the number in % and leave the unit unwritten.

For this compound ( C[C@H]1c2cccc(-c3cn[nH]c3)c2C[C@H](CO)N1C(=O)Cc1c(Cl)cccc1Cl ), measured Activity is 75.9

Input C[C@H]1c2cccc(-c3cn[nH]c3)c2C[C@H](CO)N1C(=O)Cc1cc(F)ccc1Cl . Output Activity: 79.8

The recorded Activity for C[C@H]1c2cccc(-c3cn[nH]c3)c2C[C@H](CO)N1C(=O)Cc1c(F)cccc1Cl is 81.5

The recorded Activity for C[C@H]1c2cccc(-c3cnn(C)c3)c2C[C@H](CO)N1C(=O)Cc1c(Cl)cccc1Cl is 91.4

get_value(item= C[C@H]1c2cccc(-c3cnn(C4CC4)c3)c2C[C@H](CO)N1C(=O)Cc1c(Cl)cccc1Cl , readout=Activity) returns 88.1

In plain terms, C[C@H]1c2cccc(-c3cnn(CCO)c3)c2C[C@H](CO)N1C(=O)Cc1c(Cl)cccc1Cl has a documented Activity of 79.1

compound C[C@H]1c2cccc(-c3cn[nH]c3)c2C[C@H](CO)N1C(=O)Cc1ccc(F)cc1Cl , Activity observed: 77.1

Activity measured on C[C@H]1c2cccc(-c3cnn(C)c3)c2C[C@H](CO)N1C(=O)Cc1ccccc1Cl = 80.4

// recorded Activity for CCn1cc(-c2cccc3c2C[C@H](CO)N(C(=O)Cc2c(Cl)cccc2Cl)[C@H]3C)cn1 : 91.2

# Activity (compound: C[C@H]1c2cccc(-c3cn[nH]c3)c2C[C@H](CO)N1C(=O)Cc1c(F)cccc1F ) is 78.1
